I'd be grateful if you could share measured background (unweighted spectral count, no-probe control) for these entries.
Tested on: HCoV-OC43 gRNA and sgRNA
Format: binding
Conditions: type n_48_v; 48 hpi; no-probe control on infected cells
When you answer, write just the number.

GET /value?item= HNRNPA0 (protein, UniProt Q13151 1-305, looked up) Heterogeneous nuclear …: MENSQLCKLFIGGLNVQTSESGLRGHFEAFGTLTDCVVVVNPQTKRSRCFGFVTYSNVEEADAAMAASPHAVDGNTVELKRAVSREDSARPGAHAKVKKLFVGGLKGDVAEGDLIEHFSQFGTVEKAEIIADKQSGKKRGFGFVYFQNHDAADKAAVVKFHPIQGHRVEVKKAVPKEDIYSGGGGGGSRSSRGGRGGRGRGGGRDQNGLSKGGGGGYNSYGGYGGGGGGGYNAYGGGGGGSSYGGSDYGNGFGGFGSYSQHQSSYGPMKSGGGGGGGGSSWGGRSNSGPYRGGYGGGGGYGGSSF &field=background (unweighted spectral count, no-probe control) returns 2

Documented background (unweighted spectral count, no-probe control) of SRSF5: host protein, UniProt Q13243 (protein, UniProt Q13243 1-272, looked up) Serine/arginine-rich splicing …: MSGCRVFIGRLNPAAREKDVERFFKGYGRIRDIDLKRGFGFVEFEDPRDADDAVYELDGKELCSERVTIEHARARSRGGRGRGRYSDRFSSRRPRNDRRNAPPVRTENRLIVENLSSRVSWQDLKDFMRQAGEVTFADAHRPKLNEGVVEFASYGDLKNAIEKLSGKEINGRKIKLIEGSKRHSRSRSRSRSRTRSSSRSRSRSRSRSRKSYSRSRSRSRSRSRSKSRSVSRSPVPEKSQKRGSSSRSKSPASVDRQRSRSRSRSRSVDSGN : 2

Briefly, background (unweighted spectral count, no-probe control) measured for NHP2 (protein, UniProt Q9NX24 1-153, looked up) H/ACA ribonucleoprotein …: MTKIKADPDGPEAQAEACSGERTYQELLVNQNPIAQPLASRRLTRKLYKCIKKAVKQKQIRRGVKEVQKFVNKGEKGIMVLAGDTLPIEVYCHLPVMCEDRNLPYVYIPSKTDLGAAAGSKRPTCVIMVKPHEEYQEAYDECLEEVQSLPLPL : 1

Looking up PURB (protein, UniProt Q96QR8 2-312, looked up) Transcriptional regulator …: ADGDSGSERGGGGGPCGFQPASRGGGEQETQELASKRLDIQNKRFYLDVKQNAKGRFLKIAEVGAGGSKSRLTLSMAVAAEFRDSLGDFIEHYAQLGPSSPEQLAAGAEEGGGPRRALKSEFLVRENRKYYLDLKENQRGRFLRIRQTVNRGGGGFGAGPGPGGLQSGQTIALPAQGLIEFRDALAKLIDDYGGEDDELAGGPGGGAGGPGGGLYGELPEGTSITVDSKRFFFDVGCNKYGVFLRVSEVKPSYRNAITVPFKAWGKFGGAFCRYADEMKEIQERQRDKLYERRGGGSGGGEESEGEEVDED , I see its background (unweighted spectral count, no-probe control) listed as 1

// field: background (unweighted spectral count, no-probe control); key: PABPN1 (protein, UniProt Q86U42 2-306, looked up) Polyadenylate-binding protein …: AAAAAAAAAAGAAGGRGSGPGRRRHLVPGAGGEAGEGAPGGAGDYGNGLESEELEPEELLLEPEPEPEPEEEPPRPRAPPGAPGPGPGSGAPGSQEEEEEPGLVEGDPGDGAIEDPELEAIKARVREMEEEAEKLKELQNEVEKQMNMSPPPGNAGPVIMSIEEKMEADARSIYVGNVDYGATAEELEAHFHGCGSVNRVTILCDKFSGHPKGFAYIEFSDKESVRTSLALDESLFRGRQIKVIPKRTNRPGISTTDRGFPRARYRARTTNYNSSRSRFYSGFNSRPRGRVYRGRARATSWYSPY ; value = 2

Ref: patent US20230407373A1
